assay: Oral bioavailability in CD1 mouse plasma by LC-MS/MS analysis; type: ADME, organism-based
For each of the compounds below, state its bioavailability.
Hi! Could you send only the number? It should be in %, unit omitted.

Tell me the measured bioavailability of CC(C)NCc1cc2cc3c(cc2n1C)CCCc1c-3[nH]c(=O)c(C(=O)O)c1O , please.
44

Tell me the measured bioavailability of CN(C)Cc1cc2cc3c(cc2n1C)CCCc1c-3[nH]c(=O)c(C(=O)O)c1O , please.
42

Tell me the measured bioavailability of Cn1c(CN2CCCC2)cc2cc3c(cc21)CCCc1c-3[nH]c(=O)c(C(=O)O)c1O , please.
33

Tell me the measured bioavailability of Cn1c(CNC2(C)CCC2)cc2cc3c(cc21)CCCc1c-3[nH]c(=O)c(C(=O)O)c1O , please.
65

Tell me the measured bioavailability of Cn1c(CNC2(C)CCC2)cc2cc3c(cc21)OCCc1c-3[nH]c(=O)c(C(=O)O)c1O , please.
50
